System: Mus musculus
TEST NAME: Toxicity in Swiss albino mouse implanted with mouse EAC cells assessed as effect on RBC count at 0.5 mg/mouse administered for 9 days (reference value: 3.69 10^6/mm3)
Assay type: organism-based
MEASUREMENT CONDITIONS: in vivo, 216 h
Decision: Activity beneath 5 ×10⁶ /mm3 gives met; Activity meeting or exceeding 5 ×10⁶ /mm3 gives not met.

# MOLECULE, TARGET SYSTEM, CLASS LABEL
data = [
    ("COc1cccc2c1C(=O)c1c(O)c3c(c(O)c1C2=O)C[C@@](O)(C(=O)CO)C[C@@H]3O[C@H]1C[C@H](N)[C@H](O)[C@H](C)O1", "Mus musculus", "not met"),
    ("Cc1n[nH]c2c1C(c1ccc(N(C)C)cc1)C(C(=O)NNC(N)=S)=C(N)N2 (stereo not given)", "Mus musculus", "not met"),
    ("Cc1n[nH]c2c1C(c1ccc(N(C)C)cc1)C=C(N)N2 (stereo not given)", "Mus musculus", "met"),
    ("Cc1n[nH]c2c1C(c1ccc(N(C)C)cc1)C(C(N)=O)=C(N)N2 (stereo not given)", "Mus musculus", "not met"),
]

Now, please, on to the next molecule.
Bench note: check whether Cc1n[nH]c2c1C(c1ccc(N(C)C)cc1)C(C(=O)NNc1cc([N+](=O)[O-])ccc1[N+](=O)[O-])=C(N)N2 (stereo not given) shows Activity below 5 ×10⁶ /mm3 not met

Origin of values: ChEMBL document CHEMBL4270515
